study-system: kynurenin-3-hydroxylase (Rattus norvegicus, UniProt O88867)
Construct: The enzyme source is a crude rat kidney mitochondrial preparation; from tissue; host or cells: rat kidney, crude mitochondrial preparation
Sequence (O88867 whole entry): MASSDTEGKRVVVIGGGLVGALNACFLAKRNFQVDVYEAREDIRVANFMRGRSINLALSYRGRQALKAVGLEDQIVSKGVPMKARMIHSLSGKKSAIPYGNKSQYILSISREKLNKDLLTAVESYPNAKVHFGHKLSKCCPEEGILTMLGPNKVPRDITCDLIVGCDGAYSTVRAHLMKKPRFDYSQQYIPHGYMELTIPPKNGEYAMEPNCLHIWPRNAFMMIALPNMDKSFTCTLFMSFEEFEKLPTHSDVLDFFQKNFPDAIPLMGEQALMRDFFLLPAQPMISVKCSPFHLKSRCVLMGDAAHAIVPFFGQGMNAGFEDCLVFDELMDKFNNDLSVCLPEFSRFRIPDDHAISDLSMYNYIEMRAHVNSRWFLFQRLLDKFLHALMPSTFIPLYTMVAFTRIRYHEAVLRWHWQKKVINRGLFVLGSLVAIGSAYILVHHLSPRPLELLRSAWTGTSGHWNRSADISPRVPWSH
method-description: ex vivo kynurenin-3-hydroxylase inhibition in the liver after oral administration to rats
condition-description: po, 2 hours
observation-type: ED50

# query: ED50 of entry Nc1ccc(S(=O)(=O)Nc2nc(-c3cc(C(F)(F)F)ccc3F)cs2)cc1 [Example 42] 4.6 µmol/kg

How about COc1ccc(S(=O)(=O)Nc2nc(-c3cccc([N+](=O)[O-])c3)cs2)cc1 [Example 8] ? 9 µmol/kg

How about COc1ccc(S(=O)(=O)Nc2nc(-c3cc(C(F)(F)F)ccc3F)cs2)cc1OC [Example 46] ? 5.3 µmol/kg

How about Cc1ccc(S(=O)(=O)Nc2nc(-c3cc(C(F)(F)F)ccc3F)cs2)cc1 [Example 32] ? 17 µmol/kg

How about COc1ccc(S(=O)(=O)Nc2nc(-c3cc(C(F)(F)F)ccc3F)cs2)cc1 [Example 41] ? 17 µmol/kg

Shifting focus to the compound that follows.
# query: ED50 of entry COc1ccc(S(=O)(=O)Nc2nc(-c3cccc([N+](=O)[O-])c3)cs2)cc1OC [Example 21] 4.7 µmol/kg

---

UniProt O88867 data, read-out pIC50
Give bare numbers, as −log10 of the molar value.

Field: example entries. Status: answers known.
Please tell me: pIC50 of `Nc1ccc(S(=O)(=O)Nc2nc(-c3cc(C(F)(F)F)ccc3F)cs2)cc1` , system UniProt O88867? 7.82

How about `Cc1ccc(S(=O)(=O)Nc2nc(-c3cc(C(F)(F)F)ccc3F)cs2)cc1` ? 7.37

How about `COc1ccc(S(=O)(=O)Nc2nc(-c3cccc([N+](=O)[O-])c3)cs2)cc1OC` ? 7.59

Shifting focus to the molecule that follows.
Please tell me: pIC50 of `COc1ccc(S(=O)(=O)Nc2nc(-c3cccc([N+](=O)[O-])c3)cs2)cc1` , system UniProt O88867? 7.36

---

Test system: Escherichia coli
method-description: antibacterial activity, MIC by microdilution
Type: cell-based
condition-description: ATCC25922, strain ATCC 25922, BCB 1001/04, 37° C., 18 h
observation-type: MIC (mg/L)
Numbers only, in mg/L.

# query: MIC of entry `Nc1ccc(S(=O)(=O)Nc2nc(-c3cc(C(F)(F)F)ccc3F)cs2)cc1` 256

How about COc1cc(Cc2cnc(N)nc2N)cc(OC)c1OC [TMP, trimethoprim, reference compound] ? 1

Further cases:
# query: MIC of entry Cc1cc(NS(=O)(=O)c2ccc(N)cc2)no1 [SMZ, sulfamethoxazole, reference compound] 128

---

study-system: kynurenin-3-hydroxylase (Rattus norvegicus, UniProt O88867)
Construct: The enzyme source is a crude rat kidney mitochondrial preparation; from tissue; host or cells: rat kidney, crude mitochondrial preparation
method-description: in vitro kynurenin-3-hydroxylase inhibition (crude rat kidney mitochondrial preparation)
Format: biochemical
condition-description: 1 μM, read-out: % of control at 1 μM
Lab note: cut-off is 4%. Strictly less in remaining activity at 1 µM is 1. Exactly 4% or more is -1.

Worked examples follow.
Does this molecule meet the criterion remaining activity at 1 µM < 4%? `COc1ccc(S(=O)(=O)Nc2nc(-c3cc(C(F)(F)F)ccc3F)cs2)cc1` -1

How about `Cc1ccc(S(=O)(=O)Nc2nc(-c3cc(C(F)(F)F)ccc3F)cs2)cc1` ? 1

How about `COc1ccc(S(=O)(=O)Nc2nc(-c3cccc([N+](=O)[O-])c3)cs2)cc1` ? -1

How about `COc1ccc(S(=O)(=O)Nc2nc(-c3cc(C(F)(F)F)ccc3F)cs2)cc1OC` ? -1

Further cases:
Does this molecule meet the criterion remaining activity at 1 µM < 4%? `Nc1ccc(S(=O)(=O)Nc2nc(-c3cc(C(F)(F)F)ccc3F)cs2)cc1` 1

How about `COc1ccc(S(=O)(=O)Nc2nc(-c3cccc([N+](=O)[O-])c3)cs2)cc1OC` ? 1

How about `COc1ccc(-c2csc(NS(=O)(=O)c3ccc(C)cc3)n2)cc1OC` ? -1
